Collected TEAD3 ΔTm values appear next to each entry.
target: TEAD3 (Homo sapiens, UniProt Q99594); experiment: Thermal shift assay TEAD3; format: binding
Sequence (Q99594 whole entry, species assumed): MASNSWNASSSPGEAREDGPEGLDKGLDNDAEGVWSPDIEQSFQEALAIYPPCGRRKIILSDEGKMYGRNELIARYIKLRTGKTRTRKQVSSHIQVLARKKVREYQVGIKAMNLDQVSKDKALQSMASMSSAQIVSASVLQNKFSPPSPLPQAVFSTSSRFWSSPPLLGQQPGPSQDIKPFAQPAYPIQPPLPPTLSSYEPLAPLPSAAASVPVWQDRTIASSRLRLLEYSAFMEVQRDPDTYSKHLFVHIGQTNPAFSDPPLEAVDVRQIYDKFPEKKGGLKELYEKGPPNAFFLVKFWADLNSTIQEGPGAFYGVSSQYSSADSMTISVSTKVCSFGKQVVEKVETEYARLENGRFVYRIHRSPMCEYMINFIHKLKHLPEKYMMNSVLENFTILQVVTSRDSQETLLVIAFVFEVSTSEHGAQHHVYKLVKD
property: TEAD3 ΔTm (°C)

CNC(=O)[C@@H]1C[C@H]1c1cc(Oc2ccc(C(F)(F)F)cc2)cc2c1NCCC2 (racemic) = 1.0
Cn1ncc2c(C3C[C@H]3C(N)=O)cc(-c3ccc(C(F)(F)F)cc3)cc21 (mixture of isomers) = 0.7
Cn1ncc2c(C3C[C@H]3C(=O)O)cc(-c3ccc(C(F)(F)F)cc3)cc21 (mixture of isomers) = 2
CC(C)NC(=O)[C@H]1C[C@@H]1c1cc(Oc2ccc(C(F)(F)F)cc2)cc2cn(C)nc12 (single isomer, unassigned) [Example 56b] = 8.1
